test-target: T1, UBXD1-PUB (150–264) Q200A (UniProt Q9BZV1 150-264, Q200A)
T1 construct: UBXD1 PUB domain construct, residues 150-264, point mutant; source: E. coli Rosetta2, purified (Ni-NTA, thrombin cleavage of the tag, SEC); not shown: His6, N-terminal, cleaved
T1 sequence (looked up): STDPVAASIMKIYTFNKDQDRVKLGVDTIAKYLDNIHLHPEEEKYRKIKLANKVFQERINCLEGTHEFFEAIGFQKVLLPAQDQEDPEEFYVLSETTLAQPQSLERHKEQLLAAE
test-details: fluorescence polarisation; fluorescence anisotropy; PUB constructs titrated to 100 nM 5,6-FAM labeled p97-C10 peptide; 50 mM NaKPi pH 6.5, 25 °C; triplicate; one-site quadratic fit
assay-conditions: both partners purified
No end group written: not given here.
measure-name: Kd (µM)
Report as a plain number; the unit µM is understood.

Could you share which Kd value was measured for TEDNDDDLYG (also: 5,6-FAM label, position not given here, source: synthetic peptide, bought: Caslo ApS (Denmark)) [5,6-FAM-labeled p97-C10 peptide] ?
8.3
